Values were extracted from ChEMBL document CHEMBL4118285.

Listed next: entries and their corresponding MIC.
tested on: Staphylococcus epidermidis; assay: Antibacterial activity against methicillin-sensitive Staphylococcus epidermidis 11X315 by broth microdilution method; type: functional
assay metric: MIC (µg/mL)

given_smiles=CC[C@H]1OC(=O)[C@H](C)C(=O)[C@H](C)[C@@H](O[C@@H]2O[C@H](C)C[C@H](N(C)C)[C@H]2O)[C@](C)(OC)C[C@@H](C)C(=O)[C@H](C)[C@H]2N(CCCNc3cnc4ccccc4c3)C(=O)O[C@]12C measured_target="Staphylococcus epidermidis" assay_metric=MIC observed_value=0.5
given_smiles=CC[C@H]1OC(=O)[C@H](C)[C@@H](O[C@H]2C[C@@](C)(OC)[C@@H](O)[C@H](C)O2)[C@H](C)[C@@H](O[C@@H]2O[C@H](C)C[C@H](N(C)C)[C@H]2O)[C@](C)(OC)C[C@@H](C)C(=O)[C@H](C)[C@@H](O)[C@]1(C)O measured_target="Staphylococcus epidermidis" assay_metric=MIC observed_value=0.125
given_smiles=CC[C@H]1OC(=O)[C@H](C)C(=O)[C@H](C)[C@@H](O[C@@H]2O[C@H](C)C[C@H](N(C)C)[C@H]2O)[C@](C)(OC)C[C@@H](C)C(=O)[C@H](C)[C@H]2N(CCCSc3cnc4ccccc4c3)C(=O)O[C@]12C measured_target="Staphylococcus epidermidis" assay_metric=MIC observed_value=0.125

---

test system: Staphylococcus aureus; assay: Antibacterial activity against methicillin-resistant Staphylococcus aureus ATCC 33591 by broth microdilution method; type: functional
assay metric: MIC (mg/L)

given_smiles=CC[C@H]1OC(=O)[C@H](C)C(=O)[C@H](C)[C@@H](O[C@@H]2O[C@H](C)C[C@H](N(C)C)[C@H]2O)[C@](C)(OC)C[C@@H](C)C(=O)[C@H](C)[C@H]2N(CC/C=C/c3cncc4cc(C)ccc34)C(=O)O[C@]12C units_of_measure=mg/L observed_value=64
given_smiles=CC[C@H]1OC(=O)[C@H](C)C(=O)[C@H](C)[C@@H](O[C@@H]2O[C@H](C)C[C@H](N(C)C)[C@H]2O)[C@](C)(OC)C[C@@H](C)C(=O)[C@H](C)[C@H]2N(CC/C=C/c3cncc4cc(OCc5ccccc5)ccc34)C(=O)O[C@]12C units_of_measure=mg/L observed_value=8

---

tested on: Escherichia coli; experiment: Antibacterial activity against extended spectrum beta-lactamases non-producing Escherichia coli ATCC 25922 by broth microdilution method; format: functional
assay metric: MIC (µg/mL)

compound=CC[C@H]1OC(=O)[C@H](C)C(=O)[C@H](C)[C@@H](O[C@@H]2O[C@H](C)C[C@H](N(C)C)[C@H]2O)[C@](C)(OC)C[C@@H](C)C(=O)[C@H](C)[C@H]2N(CC/C=C/c3cncc4ccc(-c5ccccc5)cc34)C(=O)O[C@]12C measured_target="Escherichia coli" units_of_measure=µg/mL sign=> observed_value=256
compound=CC[C@H]1OC(=O)[C@@](C)(F)C(=O)[C@H](C)[C@@H](O[C@@H]2O[C@H](C)C[C@H](N(C)C)[C@H]2O)[C@](C)(OC)C[C@@H](C)C(=O)[C@H](C)[C@H]2N(CCCOc3cnc4ccccc4c3)C(=O)O[C@]12C measured_target="Escherichia coli" units_of_measure=µg/mL sign== observed_value=8
compound=CC[C@H]1OC(=O)[C@H](C)C(=O)[C@H](C)[C@@H](O[C@@H]2O[C@H](C)C[C@H](N(C)C)[C@H]2O)[C@](C)(OC)C[C@@H](C)C(=O)[C@H](C)[C@H]2N(CC/C=C/c3cncc4cc(C)ccc34)C(=O)O[C@]12C measured_target="Escherichia coli" units_of_measure=µg/mL sign== observed_value=64
compound="CC[C@H]1OC(=O)[C@H](C)C(=O)[C@H](C)[C@@H](O[C@@H]2O[C@H](C)C[C@H](N(C)C)[C@H]2O)[C@](C)(OC)C[C@@H](C)C(=O)[C@H](C)[C@H]2N(CCCCn3cnc(-c4cccnc4)c3)C(=O)O[C@]12C [TELITHROMYCIN]" measured_target="Escherichia coli" units_of_measure=µg/mL sign== observed_value=8
compound=CC[C@H]1OC(=O)[C@H](C)C(=O)[C@H](C)[C@@H](O[C@@H]2O[C@H](C)C[C@H](N(C)C)[C@H]2O)[C@](C)(OC)C[C@@H](C)C(=O)[C@H](C)[C@H]2N(CCCOc3ccc4cccnc4c3)C(=O)O[C@]12C measured_target="Escherichia coli" units_of_measure=µg/mL sign== observed_value=16
compound=CC[C@H]1OC(=O)[C@@](C)(F)C(=O)[C@H](C)[C@@H](O[C@@H]2O[C@H](C)C[C@H](N(C)C)[C@H]2O)[C@](C)(OC)C[C@@H](C)C(=O)[C@H](C)[C@H]2N(CC/C=C/c3cnc4ccccc4c3)C(=O)O[C@]12C measured_target="Escherichia coli" units_of_measure=µg/mL sign== observed_value=8
compound=CC[C@H]1OC(=O)[C@H](C)C(=O)[C@H](C)[C@@H](O[C@@H]2O[C@H](C)C[C@H](N(C)C)[C@H]2O)[C@](C)(OC)C[C@@H](C)C(=O)[C@H](C)[C@H]2N(CC/C=C/c3cncc4ccccc34)C(=O)O[C@]12C measured_target="Escherichia coli" units_of_measure=µg/mL sign== observed_value=16
compound=CC[C@H]1OC(=O)[C@H](C)C(=O)[C@H](C)[C@@H](O[C@@H]2O[C@H](C)C[C@H](N(C)C)[C@H]2O)[C@](C)(OC)C[C@@H](C)C(=O)[C@H](C)[C@H]2N(CC/C=C/c3cncc4cc(OC)ccc34)C(=O)O[C@]12C measured_target="Escherichia coli" units_of_measure=µg/mL sign== observed_value=64

---

tested on: Streptococcus pyogenes; assay: Antibacterial activity against erythromycin-resistant Streptococcus pyogenes 11 N369 by broth microdilution method; format: functional
assay metric: MIC

given_smiles=CC[C@H]1OC(=O)[C@H](C)[C@@H](O[C@H]2C[C@@](C)(OC)[C@@H](O)[C@H](C)O2)[C@H](C)[C@@H](O[C@@H]2O[C@H](C)C[C@H](N(C)C)[C@H]2O)[C@](C)(OC)C[C@@H](C)C(=O)[C@H](C)[C@@H](O)[C@]1(C)O assay_metric=MIC observed_value="> 64 µg/mL"
given_smiles=CC[C@H]1OC(=O)[C@H](C)C(=O)[C@H](C)[C@@H](O[C@@H]2O[C@H](C)C[C@H](N(C)C)[C@H]2O)[C@](C)(OC)C[C@@H](C)C(=O)[C@H](C)[C@H]2N(CCCSc3cnc4ccccc4c3)C(=O)O[C@]12C assay_metric=MIC observed_value="0.5 µg/mL"
given_smiles=CC[C@H]1OC(=O)[C@H](C)C(=O)[C@H](C)[C@@H](O[C@@H]2O[C@H](C)C[C@H](N(C)C)[C@H]2O)[C@](C)(OC)C[C@@H](C)C(=O)[C@H](C)[C@H]2N(CCCOc3cnc4ccccc4c3)C(=O)O[C@]12C assay_metric=MIC observed_value="1 µg/mL"
given_smiles=CC[C@H]1OC(=O)[C@H](C)C(=O)[C@H](C)[C@@H](O[C@@H]2O[C@H](C)C[C@H](N(C)C)[C@H]2O)[C@](C)(OC)C[C@@H](C)C(=O)[C@H](C)[C@H]2N(CCCCn3cnc(-c4cccnc4)c3)C(=O)O[C@]12C assay_metric=MIC observed_value="0.125 µg/mL"
given_smiles=CC[C@H]1OC(=O)[C@H](C)C(=O)[C@H](C)[C@@H](O[C@@H]2O[C@H](C)C[C@H](N(C)C)[C@H]2O)[C@](C)(OC)C[C@@H](C)C(=O)[C@H](C)[C@H]2N(CCCCc3cnc4ccccc4c3)C(=O)O[C@]12C assay_metric=MIC observed_value="0.5 µg/mL"
given_smiles=CC[C@H]1OC(=O)[C@H](C)C(=O)[C@H](C)[C@@H](O[C@@H]2O[C@H](C)C[C@H](N(C)C)[C@H]2O)[C@](C)(OC)C[C@@H](C)C(=O)[C@H](C)[C@H]2N(CCCNc3cnc4ccccc4c3)C(=O)O[C@]12C assay_metric=MIC observed_value="64 µg/mL"
given_smiles=CC[C@H]1OC(=O)[C@H](C)C(=O)[C@H](C)[C@@H](O[C@@H]2O[C@H](C)C[C@H](N(C)C)[C@H]2O)[C@](C)(OC)C[C@@H](C)C(=O)[C@H](C)[C@H]2N(CC/C=C/c3cnc4ccccc4c3)C(=O)O[C@]12C assay_metric=MIC observed_value="0.25 µg/mL"

---

tested on: Staphylococcus epidermidis; experiment: Antibacterial activity against methicillin-resistant Staphylococcus epidermidis 11C176 by broth microdilution method; type: functional
assay metric: MIC (µg/mL)

compound="CC[C@H]1OC(=O)[C@H](C)C(=O)[C@H](C)[C@@H](O[C@@H]2O[C@H](C)C[C@H](N(C)C)[C@H]2O)[C@](C)(OC)C[C@@H](C)C(=O)[C@H](C)[C@H]2N(CCCCn3cnc(-c4cccnc4)c3)C(=O)O[C@]12C [TELITHROMYCIN]" observed_value=0.031
compound=CC[C@H]1OC(=O)[C@H](C)C(=O)[C@H](C)[C@@H](O[C@@H]2O[C@H](C)C[C@H](N(C)C)[C@H]2O)[C@](C)(OC)C[C@@H](C)C(=O)[C@H](C)[C@H]2N(CCCNc3cnc4ccccc4c3)C(=O)O[C@]12C observed_value=0.5
compound=CC[C@H]1OC(=O)[C@H](C)C(=O)[C@H](C)[C@@H](O[C@@H]2O[C@H](C)C[C@H](N(C)C)[C@H]2O)[C@](C)(OC)C[C@@H](C)C(=O)[C@H](C)[C@H]2N(CCCOc3cnc4ccccc4c3)C(=O)O[C@]12C observed_value=0.25
compound=CC[C@H]1OC(=O)[C@H](C)C(=O)[C@H](C)[C@@H](O[C@@H]2O[C@H](C)C[C@H](N(C)C)[C@H]2O)[C@](C)(OC)C[C@@H](C)C(=O)[C@H](C)[C@H]2N(CC/C=C/c3cnc4ccccc4c3)C(=O)O[C@]12C observed_value=0.062
